- MEASURED ON: Nucleoprotein (Severe acute respiratory syndrome coronavirus 2)
- ASSAY NOTES: Binding affinity to SARS-CoV-2 N-pro assessed as dissociation constant by SPR analysis
Records here are stratified by Kd; strata: lower band: < 5 µM; central band: ≥ 5 µM and < 40 µM; upper band: ≥ 40 µM

Sample answers from the record:
| MOLECULE | MEASURED ON | CLASSIFICATION |
| --- | --- | --- |
| CCN1Cc2cc(OC)c(OC)cc2-c2cccc(NC(=O)Nc3cccc4c3N(CC)Cc3cc(OC)c(OC)cc3-4)c21 | Nucleoprotein (Severe acute respiratory syndrome coronavirus 2) | lower band |
| CCn1c(=O)c2cc(OC)c(OC)cc2c2cccc(/C=N/C3C=CNN3)c21 (centres undefined) | Nucleoprotein (Severe acute respiratory syndrome coronavirus 2) | lower band |
| CCn1c(=O)c2cc(OC)c(OC)cc2c2cccc(NS(=O)(=O)c3ccc(Cl)cc3)c21 | Nucleoprotein (Severe acute respiratory syndrome coronavirus 2) | central band |
| CCn1c(=O)c2cc(OC)c(OC)cc2c2cccc(C3C4=C(CCCC4=O)N(c4ccccc4)C4=C3C(=O)CCC4)c21 | Nucleoprotein (Severe acute respiratory syndrome coronavirus 2) | upper band |
| CCN1Cc2cc(OC)c(OC)cc2-c2cccc(NC(=O)Cc3ccccc3)c21 | Nucleoprotein (Severe acute respiratory syndrome coronavirus 2) | central band |
| CCN1Cc2cc(OC)c(OC)cc2-c2cccc(NCc3ccc(C4(C(F)(F)F)N=N4)cc3)c21 | Nucleoprotein (Severe acute respiratory syndrome coronavirus 2) | central band |
| CCN1Cc2cc(OC)c(OC)cc2-c2cccc(NC(=O)c3cc([N+](=O)[O-])cc([N+](=O)[O-])c3)c21 | Nucleoprotein (Severe acute respiratory syndrome coronavirus 2) | central band |
| CCn1c(=O)c2cc(OC)c(OC)cc2c2cccc(/C=N/c3nc[nH]n3)c21 | Nucleoprotein (Severe acute respiratory syndrome coronavirus 2) | upper band |

Switching to the query record.
Hello team, could you let me know which band the following molecule falls into: CCN1Cc2cc(OC)c(OC)cc2-c2cccc(Nc3ccc4c(c3)oc3ccccc34)c21
upper band
